Reference for the values: ChEMBL document CHEMBL2311509

assay: Antiproliferative activity against human H184B5F5/M10 cells after 72 hrs by XTT assay; format: functional, cell-based; conditions: H184B5F5/M10, 72 h
pIC50: −log10 of the molar value.
pIC50 reference

Please review the entries below; each comes with its answer.
pIC50 lookup needed for `COc1ccc(-c2cc3ccccc3nc2/C=C/C(=O)c2sccc2N)cc1` , thanks.
< 5.00

pIC50 lookup needed for `COc1ccc(-c2cc3ccccc3nc2/C=C/C(=O)c2ccccc2)cc1` , thanks.
5.07

pIC50 lookup needed for `COc1ccc(-c2cc3ccccc3nc2/C=C/C(=O)c2ccc(Br)s2)cc1` , thanks.
5.03

pIC50 lookup needed for `COc1ccc(-c2cc3ccccc3nc2/C=C/C(=O)c2cnc(N)nc2C)cc1` , thanks.
< 5.00

Others:
pIC50 lookup needed for CC[C@@]1(O)C(=O)OCc2c1cc1n(c2=O)Cc2cc3c(CN(C)C)c(O)ccc3nc2-1 [TOPOTECAN] , thanks.
< 5.00

pIC50 lookup needed for `COc1ccc(-c2cc3ccccc3nc2/C=C/C(=O)c2ccc(F)cc2)cc1` , thanks.
< 5.00

====

assay: Antiproliferative activity against human H184B5F5/M10 cells after 72 hrs by XTT assay; assay type: functional, cell-based; conditions: H184B5F5/M10, 72 h
pIC50: −log10 of the molar value.
parameter measured: pIC50

pIC50 lookup needed for `COc1ccc(C(=O)/C=C/c2nc3ccccc3cc2-c2ccc(OC)cc2)cc1` , thanks.
< 5.00

pIC50 lookup needed for `COc1ccc(-c2cc3ccccc3nc2/C=C/C(=O)c2ccc[nH]2)cc1` , thanks.
< 5.00

Others:
pIC50 lookup needed for `COc1ccc(-c2cc3ccccc3nc2/C=C/C(=O)c2c[nH]c3ccccc23)cc1` , thanks.
< 5.00

====

IC50 reference
system: SK-BR-3; assay: Antiproliferative activity against human SKBR3 cells after 72 hrs by XTT assay; assay type: functional, cell-based; conditions: SK-BR-3, 72 h

IC50 lookup needed for `COc1ccc(-c2cc3ccccc3nc2/C=C/C(=O)c2ccsc2)cc1` , thanks.
0.66 µM

IC50 lookup needed for `COc1ccc(-c2cc3ccccc3nc2/C=C/C(=O)c2ccc[nH]2)cc1` , thanks.
> 10 µM

IC50 lookup needed for `COc1ccc(-c2cc3ccccc3nc2/C=C/C(=O)c2cnc(N)nc2C)cc1` , thanks.
> 10 µM

IC50 lookup needed for `COc1ccc(-c2cc3ccccc3nc2/C=C/C(=O)c2sccc2N)cc1` , thanks.
> 10 µM

Others:
IC50 lookup needed for `COc1ccc(-c2cc3ccccc3nc2C=O)cc1` , thanks.
> 10 µM

====

system: MCF7; assay: Antiproliferative activity against human MCF7 cells after 72 hrs by XTT assay; type: functional, cell-based; conditions: MCF7, 72 h
pIC50 reference
FYI, pIC50 means -log10 of a concentration in mol per litre.

Write down the reported pIC50 of `COc1ccc(-c2cc3ccccc3nc2/C=C/C(=O)c2ccc(OC)c(OC)c2)cc1` , test system: MCF7.
5.22

Others:
Write down the reported pIC50 of `CC[C@@]1(O)C(=O)OCc2c1cc1n(c2=O)Cc2cc3c(CN(C)C)c(O)ccc3nc2-1` , test system: MCF7.
5.22

Write down the reported pIC50 of `COc1ccc(-c2cc3ccccc3nc2/C=C/C(=O)c2ccsc2)cc1` , test system: MCF7.
5.22
